Assay comment: Stability in acidic and basic conditions (TLC)
Type: physicochemical
Experimental setup: acidic conditions, 1 h; 1 = stable

- Line notation: "NC1=N/C(=C\\c2ccc(-c3ccccc3)cc2)C(=O)N1CCCN1CCOCC1"
  Number of TLC spots: 2
- Line notation: "O=C1NC(N2CCC(N3CCOCC3)CC2)=N/C1=C\\c1ccc(Oc2ccccc2)cc1"
  Number of TLC spots: 1
- Line notation: "Cl.O=C1N=C(N2CCC(N3CCOCC3)CC2)N/C1=C\\c1cccc2ccccc12"
  Number of TLC spots: 1
- Line notation: "O=C1NC(N2CCC(N3CCOCC3)CC2)=N/C1=C\\c1cccc(Oc2ccccc2)c1"
  Number of TLC spots: 2
- Line notation: "NC1=N/C(=C\\c2ccc3c(c2)Cc2ccccc2-3)C(=O)N1CCCN1CCOCC1"
  Number of TLC spots: 1
